Recorded inhibition at 5 µM by entry
systemTested: human TRPC6 (Homo sapiens)
Construct: expressed in transfected cells; host or cells: HEK 293
Sequence (Q9Y210 whole entry): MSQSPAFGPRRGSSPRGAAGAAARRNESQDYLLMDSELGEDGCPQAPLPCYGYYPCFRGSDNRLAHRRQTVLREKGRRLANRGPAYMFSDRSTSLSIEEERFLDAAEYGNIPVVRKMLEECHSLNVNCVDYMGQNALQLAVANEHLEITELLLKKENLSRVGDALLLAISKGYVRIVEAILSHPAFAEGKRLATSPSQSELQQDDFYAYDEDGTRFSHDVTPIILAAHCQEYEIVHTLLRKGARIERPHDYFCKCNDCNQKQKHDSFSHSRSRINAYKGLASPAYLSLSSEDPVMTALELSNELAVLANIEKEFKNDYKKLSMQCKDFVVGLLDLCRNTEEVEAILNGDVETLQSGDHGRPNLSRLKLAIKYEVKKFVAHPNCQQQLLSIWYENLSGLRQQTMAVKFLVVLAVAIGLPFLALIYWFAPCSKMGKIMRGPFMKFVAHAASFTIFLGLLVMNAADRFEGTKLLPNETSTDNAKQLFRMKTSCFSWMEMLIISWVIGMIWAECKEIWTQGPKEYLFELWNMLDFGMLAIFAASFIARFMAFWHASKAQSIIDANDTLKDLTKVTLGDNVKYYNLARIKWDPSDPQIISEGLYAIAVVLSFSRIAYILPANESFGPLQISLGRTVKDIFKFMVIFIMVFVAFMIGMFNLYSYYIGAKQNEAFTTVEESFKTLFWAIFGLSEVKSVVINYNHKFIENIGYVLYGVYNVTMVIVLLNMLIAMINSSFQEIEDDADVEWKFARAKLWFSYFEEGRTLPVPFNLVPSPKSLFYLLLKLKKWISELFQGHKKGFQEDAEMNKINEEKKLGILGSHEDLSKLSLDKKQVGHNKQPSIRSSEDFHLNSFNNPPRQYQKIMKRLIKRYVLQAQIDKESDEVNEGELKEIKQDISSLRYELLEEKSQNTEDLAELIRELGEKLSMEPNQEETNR
assayOverview: TRPC6 fluorescence-based assay (Ca2+ flux assay in FLIPR format), cells overexpressing TRPC6
Type: cell-based
studyConditions: 5 μM of test compound, following Carbachol stimulation
Report the value in % with no unit label.

CCOc1ccccc1Nc1nc2ccccc2n1C(C)C    40.7
Clc1ccc(Cn2cnc3ccccc32)c(Cl)c1    85.5
CCCn1c(NCc2ccco2)nc2ccccc21    14.9
Cc1nc2ccccc2n1CCNC(=O)c1ccccc1SCc1ccsc1    80.8

What value of inhibition at 5 µM on human TRPC6 (Homo sapiens) does c1ccc(Cc2nc3ccccc3n2CCCOc2ccccc2)cc1 have?
92.5

Same for CC(C)c1ccc(CNc2nc3ccccc3n2C)cc1
80.6

Same for CC(C)n1c(Nc2ccccc2)nc2ccccc21
14.5

Same for Cc1ccccc1Cn1c(C2CC2)nc2ccccc21
45.3

Same for COc1ccc(CNc2nc3ccccc3n2Cc2ccc(Cl)cc2)cc1OC
31.3
